Assay: self-splicing fitness, log relative to wild type (ln ratio); higher = more splicing; Tetrahymena group I intron in knt gene, E. coli kanamycin selection, DiMSum; sequences stand for … in CUCUCU…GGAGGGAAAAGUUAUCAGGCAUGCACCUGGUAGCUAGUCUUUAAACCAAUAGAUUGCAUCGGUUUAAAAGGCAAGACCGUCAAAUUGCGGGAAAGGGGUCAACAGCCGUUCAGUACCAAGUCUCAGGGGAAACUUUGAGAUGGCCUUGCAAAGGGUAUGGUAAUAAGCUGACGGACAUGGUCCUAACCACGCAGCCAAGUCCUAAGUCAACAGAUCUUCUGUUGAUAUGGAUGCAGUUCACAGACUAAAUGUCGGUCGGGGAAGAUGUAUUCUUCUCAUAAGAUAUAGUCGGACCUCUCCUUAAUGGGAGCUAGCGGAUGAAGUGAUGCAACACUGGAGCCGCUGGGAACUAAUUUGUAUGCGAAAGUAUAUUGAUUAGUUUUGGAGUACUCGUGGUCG;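 note: selection with 25 µg/mL kanamycin versus none on LB agar overnight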
Details: 30 °C
For each of the sequences below, state its self-splicing fitness (ln).

Specify self-splicing fitness (ln) for `ACGCAGCAAUAUUACGAUAG` and stop.
-4.2

Specify self-splicing fitness (ln) for `CGAAAGCAAUAUUACGUGGU` and stop.
-3.92

Specify self-splicing fitness (ln) for `CGUAAGCAAUAUUACGUAUC` and stop.
-3.12

Specify self-splicing fitness (ln) for `GCGAAGCAAUAUUACGCACA` and stop.
-1.08

Specify self-splicing fitness (ln) for `AUGCAGCAAUAUUACGUAGU` and stop.
-1.46

Specify self-splicing fitness (ln) for `UAAGAGCAAUAUUACGAGCU` and stop.
-2.93

Specify self-splicing fitness (ln) for `CGCCAGCAAUAUUACGAACG` and stop.
-0.982

Specify self-splicing fitness (ln) for `GCACAGCAAUAUUACGUGGC` and stop.
-4.03

* * *

Assay: self-splicing fitness, log relative to wild type (ln ratio); higher = more splicing; Tetrahymena group I intron in knt gene, E. coli kanamycin selection, DiMSum; sequences stand for … in CUCUCU…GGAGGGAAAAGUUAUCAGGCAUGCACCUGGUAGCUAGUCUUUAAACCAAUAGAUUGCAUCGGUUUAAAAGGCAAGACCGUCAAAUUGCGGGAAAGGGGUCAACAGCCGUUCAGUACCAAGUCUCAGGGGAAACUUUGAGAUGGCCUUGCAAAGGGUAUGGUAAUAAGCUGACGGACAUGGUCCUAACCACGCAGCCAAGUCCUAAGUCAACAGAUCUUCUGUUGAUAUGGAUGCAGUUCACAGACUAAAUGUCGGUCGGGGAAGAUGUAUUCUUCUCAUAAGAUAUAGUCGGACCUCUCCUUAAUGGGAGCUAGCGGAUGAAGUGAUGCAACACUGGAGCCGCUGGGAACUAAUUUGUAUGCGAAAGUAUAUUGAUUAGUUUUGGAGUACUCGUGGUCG
Conditions: 30 °C
reported.property: self-splicing fitness (ln)
Number only, no unit.

Specify self-splicing fitness (ln) for `UCGGAGCAAUAUUACGGUAU` and stop.
-3.24

Specify self-splicing fitness (ln) for `CGAGAGCAAUAUUACGAUAG` and stop.
-2.68

Specify self-splicing fitness (ln) for `CCACAGCAAUAUUACGCGCA` and stop.
-3.95

Specify self-splicing fitness (ln) for `UCUGAGCAAUAUUACGUUGG` and stop.
-0.956

Specify self-splicing fitness (ln) for `UGCGAGCAAUAUUACGUCCU` and stop.
-2.35

Specify self-splicing fitness (ln) for `UGCGAGCAAUAUUACGUCCG` and stop.
-3.31

Specify self-splicing fitness (ln) for `UUCAAGCAAUAUUACGCCAA` and stop.
-0.664

Specify self-splicing fitness (ln) for `AACGAGCAAUAUUACGGCCG` and stop.
-1.2

Specify self-splicing fitness (ln) for `UCGGAGCAAUAUUACGCCUG` and stop.
-0.894

Specify self-splicing fitness (ln) for `CAGGAGCAAUAUUACGAGAG` and stop.
-1.92

Specify self-splicing fitness (ln) for `UACCAGCAAUAUUACGCUUA` and stop.
-0.566

Specify self-splicing fitness (ln) for `AUAUAGCAAUAUUACGCAUG` and stop.
-1.66

Specify self-splicing fitness (ln) for `GCAUAGCAAUAUUACGGCUU` and stop.
-0.36

Specify self-splicing fitness (ln) for `AUAUAGCAAUAUUACGCCCG` and stop.
-1.67

Specify self-splicing fitness (ln) for `CCCUAGCAAUAUUACGACCU` and stop.
-3.5

Specify self-splicing fitness (ln) for `UCCCAGCAAUAUUACGCGAC` and stop.
-4.31

* * *

Assay: self-splicing fitness, log relative to wild type (ln ratio); higher = more splicing; Tetrahymena group I intron in knt gene, E. coli kanamycin selection, DiMSum; sequences stand for … in CUCUCU…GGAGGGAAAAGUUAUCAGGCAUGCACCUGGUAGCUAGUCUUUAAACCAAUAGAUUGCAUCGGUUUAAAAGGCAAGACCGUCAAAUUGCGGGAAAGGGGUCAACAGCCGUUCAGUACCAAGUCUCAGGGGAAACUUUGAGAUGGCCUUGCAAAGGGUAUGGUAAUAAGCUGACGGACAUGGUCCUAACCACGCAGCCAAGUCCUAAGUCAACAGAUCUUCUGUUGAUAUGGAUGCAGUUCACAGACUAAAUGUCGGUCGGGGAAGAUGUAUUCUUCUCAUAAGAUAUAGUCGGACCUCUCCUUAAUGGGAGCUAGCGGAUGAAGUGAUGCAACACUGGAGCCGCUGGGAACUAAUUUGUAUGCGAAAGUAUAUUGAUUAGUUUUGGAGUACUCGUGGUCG
Conditions: 30 °C
Assign a class from recorded self-splicing fitness (ln); defined classes: band A (below -3), band B (-3 to below -1), band C (-1 or more)

Hi, small favor: classify `UGGGAGCAAUAUUACGGCCA` by its self-splicing fitness (ln) when you get a moment.
band B

Hi, small favor: classify `AAUAAGCAAUAUUACGAGCU` by its self-splicing fitness (ln) when you get a moment.
band C

Hi, small favor: classify `UAUUAGCAAUAUUACGGGUA` by its self-splicing fitness (ln) when you get a moment.
band C

Hi, small favor: classify `CCACAGCAAUAUUACGGUUC` by its self-splicing fitness (ln) when you get a moment.
band A

Hi, small favor: classify `AGUUAGCAAUAUUACGUCAG` by its self-splicing fitness (ln) when you get a moment.
band A

Hi, small favor: classify `CGUUAGCAAUAUUACGUGCG` by its self-splicing fitness (ln) when you get a moment.
band A

Hi, small favor: classify `UACCAGCAAUAUUACGGCAC` by its self-splicing fitness (ln) when you get a moment.
band B

Hi, small favor: classify `UACUAGCAAUAUUACGCCCU` by its self-splicing fitness (ln) when you get a moment.
band C

Hi, small favor: classify `GUCUAGCAAUAUUACGAGCU` by its self-splicing fitness (ln) when you get a moment.
band B

Hi, small favor: classify `GCGAAGCAAUAUUACGUAUG` by its self-splicing fitness (ln) when you get a moment.
band A

Hi, small favor: classify `UUAAAGCAAUAUUACGCGGA` by its self-splicing fitness (ln) when you get a moment.
band C

Hi, small favor: classify `CUACAGCAAUAUUACGUCGC` by its self-splicing fitness (ln) when you get a moment.
band A

Hi, small favor: classify `AGGCAGCAAUAUUACGGUUG` by its self-splicing fitness (ln) when you get a moment.
band A

Hi, small favor: classify `AGAAAGCAAUAUUACGACGA` by its self-splicing fitness (ln) when you get a moment.
band C

Hi, small favor: classify `UACCAGCAAUAUUACGAGGA` by its self-splicing fitness (ln) when you get a moment.
band B

* * *

Test: self-splicing fitness, log relative to wild type (ln ratio); higher = more splicing; Tetrahymena group I intron in knt gene, E. coli kanamycin selection, DiMSum; sequences stand for … in CUCUCU…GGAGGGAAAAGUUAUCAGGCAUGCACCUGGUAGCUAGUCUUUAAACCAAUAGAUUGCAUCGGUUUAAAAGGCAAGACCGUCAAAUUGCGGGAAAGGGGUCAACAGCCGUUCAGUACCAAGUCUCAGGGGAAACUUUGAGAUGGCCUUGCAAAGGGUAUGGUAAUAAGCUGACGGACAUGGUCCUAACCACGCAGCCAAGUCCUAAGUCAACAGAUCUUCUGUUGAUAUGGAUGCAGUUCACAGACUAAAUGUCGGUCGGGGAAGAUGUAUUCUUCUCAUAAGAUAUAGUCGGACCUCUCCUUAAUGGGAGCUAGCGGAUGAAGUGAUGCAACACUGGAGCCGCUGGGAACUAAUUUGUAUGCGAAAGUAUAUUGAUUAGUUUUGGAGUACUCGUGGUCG
Details: 30 °C
reported.property: self-splicing fitness (ln)

Specify self-splicing fitness (ln) for `AUCAAGCAAUAUUACGGUAA` and stop.
-2.12

Specify self-splicing fitness (ln) for `GCGAAGCAAUAUUACGCGGG` and stop.
-2.26

Specify self-splicing fitness (ln) for `GCGGAGCAAUAUUACGAUGA` and stop.
-3.1

Specify self-splicing fitness (ln) for `ACGUAGCAAUAUUACGGAUC` and stop.
-1.97

Specify self-splicing fitness (ln) for `AGUAAGCAAUAUUACGAUAA` and stop.
-2.23

Specify self-splicing fitness (ln) for `CAGGAGCAAUAUUACGCAAA` and stop.
-4.2

Specify self-splicing fitness (ln) for `UGCUAGCAAUAUUACGCGUA` and stop.
-0.838

Specify self-splicing fitness (ln) for `AACAAGCAAUAUUACGCAUU` and stop.
-2.01

Specify self-splicing fitness (ln) for `CGCUAGCAAUAUUACGAAGU` and stop.
-3.12

Specify self-splicing fitness (ln) for `CCUGAGCAAUAUUACGACCA` and stop.
-2.89

Specify self-splicing fitness (ln) for `UAUUAGCAAUAUUACGUCUG` and stop.
0.0275

Specify self-splicing fitness (ln) for `GUCCAGCAAUAUUACGCUGC` and stop.
-1.85

Specify self-splicing fitness (ln) for `UAAAAGCAAUAUUACGAUCG` and stop.
0.0746

Specify self-splicing fitness (ln) for `GAUAAGCAAUAUUACGUCCC` and stop.
-0.291

Specify self-splicing fitness (ln) for `UAUAAGCAAUAUUACGUAAU` and stop.
-3.56

Specify self-splicing fitness (ln) for `GCCUAGCAAUAUUACGCUCU` and stop.
-0.984
